target: human FPPS (Homo sapiens); experiment: Isothermal titration calorimetry (ITC) binding assay; set-up: His6 (N); made in house; host or cells: Escherichia coli BL21 (DE3); conditions: ITC, 30 °C, titrated in presence of Mg2+ (5 mM MgCl2), triplicate; read-out: Kd
Sequence (P14324 67-419): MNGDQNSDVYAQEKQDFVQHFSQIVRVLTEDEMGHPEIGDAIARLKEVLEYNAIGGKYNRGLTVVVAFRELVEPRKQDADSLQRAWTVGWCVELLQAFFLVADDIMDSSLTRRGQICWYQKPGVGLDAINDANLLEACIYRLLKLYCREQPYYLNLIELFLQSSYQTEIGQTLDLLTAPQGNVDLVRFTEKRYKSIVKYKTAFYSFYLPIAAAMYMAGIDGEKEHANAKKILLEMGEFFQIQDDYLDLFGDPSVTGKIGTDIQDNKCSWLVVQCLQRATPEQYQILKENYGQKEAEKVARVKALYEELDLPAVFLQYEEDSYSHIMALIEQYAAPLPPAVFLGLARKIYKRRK
property measured: Kd (µM)
Give the value in µM but do not write µM after it.

{"columns": ["compound", "unit info", "Kd"],
 "data": [
  ["CC(C)=CCC/C(C)=C/CC/C(C)=C/CO[P@@](=O)(O)OP(=O)(O)O (stereo in doubt) [FPP, farnesyl pyrophosphate]", "µM", 6]
]}

// next entry
Returns the measured Kd for the input compound. Input: CC(C)=CCC/C(C)=C/COP(=O)(O)OP(=O)(O)O [GPP, geranyl pyrophosphate] 2.1

The reported measurements were obtained from paper PMC5253651.
